- Tested on: Crude diglycosidase
- protocol: Examination of substrate concentration in the conversion into isoflavone aglycons by diglycosidase using soybean materials;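 note: percent of the isoflavone family total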
- Assay type: biochemical, Penicillium multicolor IAM7153
- experimental_setup: soymilk, substrate concentration 10%, heat treatment of enzyme no, reaction time 3 h
- Protocol: Into 20 mM acetate buffer of pH 4.0 was suspended 0.1 g, 0.25 g, 0.5 g, 1.0 g, or 1.5 g of each of various soybean materials (roasted soy flour (manufactured by Fuji Shokuryo K.K.), soymilk (manufactured by Gitoh Shokuhin K.K.), defatted soybean (manufactured by Fuji Seiyu K.K.), concentrated soybean protein (manufactured by Fuji Seiyu K.K.)). The pH of the suspension was measured and the liquid volume was adjusted to 4.5 mL while the pH was adjusted to 4.0 with 1N hydrochloric acid. […]
parameter_measured: Decomposition efficiency: ratio of each glycoside/aglycon within its isoflavone family

COc1cc2c(=O)c(-c3ccc(O)cc3)coc2cc1O[C@@H]1O[C@H](CO)[C@@H](O)[C@H](O)[C@H]1O : not detected
CC(=O)OC[C@H]1O[C@@H](Oc2ccc3c(=O)c(-c4ccc(O)cc4)coc3c2)[C@H](O)[C@@H](O)[C@@H]1O : not detected
COc1cc2c(=O)c(-c3ccc(O)cc3)coc2cc1O[C@@H]1O[C@H](COC(=O)CC(=O)O)[C@@H](O)[C@H](O)[C@H]1O : 10.5%
O=c1c(-c2ccc(O)cc2)coc2cc(O[C@@H]3O[C@H](CO)[C@@H](O)[C@H](O)[C@H]3O)cc(O)c12 : not detected

====

- Tested on: Crude diglycosidase
- protocol: Examination of pH in the conversion into isoflavone aglycons by diglycosidase using soybean materials
- Type: biochemical, Penicillium multicolor IAM7153
- experimental_setup: pH2, heat treatment of enzyme no, reaction time 0 h, 55° C.
parameter_measured: Decomposition efficiency of daidzin family in roasted soy flour
Output spec: single numeric token, no unit.

Solved entries (count: 2):
O=c1c(-c2ccc(O)cc2)coc2cc(O)ccc12 : 3.5
CC(=O)OC[C@H]1O[C@@H](Oc2ccc3c(=O)c(-c4ccc(O)cc4)coc3c2)[C@H](O)[C@@H](O)[C@@H]1O : 47.4

We now examine a further compound.
Ask: Which Decomposition efficiency of daidzin family in roasted soy flour is listed for O=c1c(-c2ccc(O)cc2)coc2cc(O[C@@H]3O[C@H](CO)[C@@H](O)[C@H](O)[C@H]3O)ccc12 ?
Reply: 49.1

====

- Tested on: Crude diglycosidase
- protocol: Examination of pH in the conversion into isoflavone aglycons by diglycosidase using soybean materials
- Assay type: biochemical, Penicillium multicolor IAM7153
- experimental_setup: pH8.5, heat treatment of enzyme no, reaction time 0 h, 55° C.
parameter_measured: Decomposition efficiency of daidzin family in roasted soy flour
Output spec: single numeric token, no unit.

Solved entries (count: 2):
O=c1c(-c2ccc(O)cc2)coc2cc(O)ccc12 : 3.8
CC(=O)OC[C@H]1O[C@@H](Oc2ccc3c(=O)c(-c4ccc(O)cc4)coc3c2)[C@H](O)[C@@H](O)[C@@H]1O : 42.1

We now examine a further compound.
Ask: Which Decomposition efficiency of daidzin family in roasted soy flour is listed for O=c1c(-c2ccc(O)cc2)coc2cc(O[C@@H]3O[C@H](CO)[C@@H](O)[C@H](O)[C@H]3O)ccc12 ?
Reply: 54.1

====

We begin with a simple list: items and their reported Decomposition efficiency of glycitin family in concentrated soybean protein.
- Tested on: Crude diglycosidase
- protocol: Examination of temperature in the conversion into isoflavone aglycons by diglycosidase using soybean materials
- Type: biochemical, Penicillium multicolor IAM7153
- experimental_setup: 65 °C; heat treatment of enzyme: no; 3 h
Quick note: give the figure in %, leave out the unit.

COc1cc2c(=O)c(-c3ccc(O)cc3)coc2cc1O[C@@H]1O[C@H](COC(C)=O)[C@@H](O)[C@H](O)[C@H]1O [acetylglycitin, 6″-O-acetylglycitin] : 35.5
COc1cc2c(=O)c(-c3ccc(O)cc3)coc2cc1O [glycitein] : 64.0

We now examine a further molecule.
Ask: Which Decomposition efficiency of glycitin family in concentrated soybean protein is listed for COc1cc2c(=O)c(-c3ccc(O)cc3)coc2cc1O[C@@H]1O[C@H](COC(=O)CC(=O)O)[C@@H](O)[C@H](O)[C@H]1O [malonylglycitin, 6″-O-malonylglycitin] ?
Reply: 0.5
